Parameter 'readout' = pIC50; parameter 'system' = dephosphorylated FGFR1 (SEQ ID NO: 1, amino acids 458 to 765) (Homo sapiens (Human)).
Sequence (P11362 458-765): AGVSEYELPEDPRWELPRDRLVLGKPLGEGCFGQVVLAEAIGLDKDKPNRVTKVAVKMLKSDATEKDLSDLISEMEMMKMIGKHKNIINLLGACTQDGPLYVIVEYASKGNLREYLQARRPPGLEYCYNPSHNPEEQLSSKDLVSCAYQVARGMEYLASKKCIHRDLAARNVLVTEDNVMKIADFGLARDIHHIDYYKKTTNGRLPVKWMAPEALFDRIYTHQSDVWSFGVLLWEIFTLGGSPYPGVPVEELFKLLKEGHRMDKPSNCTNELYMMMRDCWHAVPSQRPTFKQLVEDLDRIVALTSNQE
pIC50: −log10 of the molar value.
measure_name: pIC50

Record excerpt, results attached:
pIC50 in this record for C=CC(=O)N1CCC(C#N)(C(=O)N2CCC(n3cc(-c4cc(OC)c5c(C#N)cnn5c4)cn3)CC2)CC1 : 7.08

pIC50 in this record for C=CC(=O)N1CC(C(=O)N2C3CCC2CN(c2ccc(-c4cc(OC)c5c(C#N)cnn5c4)cn2)C3)C1 : 7.57

pIC50 in this record for C=CC(=O)Nc1ccccc1C(=O)N1CCC[C@@H](n2cc(-c3cc(OC)c4c(C#N)cnn4c3)cn2)C1 : 6.46

pIC50 in this record for C=CC(=O)N1CC(C(=O)N2C3CC2CN(c2ccc(-c4cc(OC)c5c(C#N)cnn5c4)cn2)C3)C1 : 7.07

pIC50 in this record for COc1cc(-c2cnn(C3CCN(C(=O)C4(F)CN(C(=O)/C=C/CN(C)C)C4)CC3)c2C)cn2ncc(Cl)c12 : 6.31

pIC50 in this record for C=CC(=O)N1C[C@H]2CN(C(=O)N3CCC(n4cc(-c5cc(OC)c6c(C#N)cnn6c5)cn4)CC3)C[C@H]21 : 7.28

pIC50 in this record for C=CC(=O)N1CC(C)(C(=O)N2CCC(n3cc(-c4cc(OC)c5c(C#N)cnn5c4)cn3)CC2)C1 : 7.48

pIC50 in this record for C=CC(=O)N1CC(C)(C(=O)N2CCC(n3cc(-c4cc(OC)c5c(Cl)cnn5c4)cn3)CC2)C1 : 6.66

I: COc1cc(-c2cnn(C3CCN(CC4CN(C(=O)/C=C/CN5CCCCC5)C4)CC3)c2)cn2ncc(C#N)c12
II: C=CC(=O)N1CC(C(=O)N2CCC(n3ncc(-c4cc(OC)c5c(C#N)cnn5c4)c3C)CC2)C1(C)C (centres unmarked)
III: C=CC(=O)N1CC(C(=O)N2CCC(n3cc(-c4cc(-c5ccccc5F)c5c(C#N)cnn5c4)cn3)CC2)C1
Query: With regard to pIC50, arrange the entries in ascending order, please. Give the labels in the order specified.
Response: II, I, III
(II: 6.49, I: 7.05, III: 8.15)

a: C=CC(=O)N1CC[C@H](C(=O)N2CCC(n3cc(-c4cc(OC)c5c(C#N)cnn5c4)cn3)CC2)C1
b: C=CC(=O)N1CC(CN2CCC(n3ncc(-c4cc(OC)c5c(C#N)cnn5c4)c3C)CC2)(OC)C1
Query: Field: lower recorded pIC50 (choose a or b ) Write down the label of the entry you select.
Response: b

These entries and their values trace back to patent US12180207B2.
